test system: UniProt:P38532
Sequence (P38532 whole entry): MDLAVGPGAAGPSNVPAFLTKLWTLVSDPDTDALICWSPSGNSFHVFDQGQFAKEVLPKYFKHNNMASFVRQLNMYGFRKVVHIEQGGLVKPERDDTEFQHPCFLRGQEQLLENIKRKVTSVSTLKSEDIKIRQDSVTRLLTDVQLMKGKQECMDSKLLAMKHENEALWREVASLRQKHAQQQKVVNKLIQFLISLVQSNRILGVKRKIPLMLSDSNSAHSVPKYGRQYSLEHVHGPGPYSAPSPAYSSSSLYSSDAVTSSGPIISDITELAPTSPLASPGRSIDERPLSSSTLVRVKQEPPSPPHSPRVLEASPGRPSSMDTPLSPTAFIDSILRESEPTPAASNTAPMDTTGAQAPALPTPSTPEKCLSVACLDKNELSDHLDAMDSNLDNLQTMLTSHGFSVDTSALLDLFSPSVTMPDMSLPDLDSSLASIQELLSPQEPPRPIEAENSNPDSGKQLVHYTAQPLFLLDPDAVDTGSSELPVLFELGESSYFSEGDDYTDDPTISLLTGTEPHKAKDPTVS
run description: decrease of HSF1-responsive luciferase luminescence – cell-based, NIH3T3, dose retest, confirmation (AID 2382);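 further: NIH3T3 fibroblasts with HSF1-driven luciferase reporter stressed by proteasome inhibitor MG132; luminescence from HSF1-driven luciferase expression after 8 hours of MG132 stress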
Type: functional
Calls of active or inactive are those of the source.
observation type: EC50

O=C(COC(=O)Cc1ccsc1)NCC12CC3CC(CC(C3)C1)C2 : > 195 µM (not active)
CO/C(O)=C1/C(C)=Nc2c(c(=O)n(C)c(=O)n2C)C1c1cccc(O)c1 (stereo not given) : 27.8 µM (active)
COc1ccc(OC)c(-c2cc(C(=O)N/N=C/c3cc(OC)c(OC)cc3OC)c3ccccc3n2)c1 : > 195 µM (not active)

Batch request: EC50 per item, same order as input.
1. CC(=O)Nc1ccc(CN2CCC(CO)(CCOc3ccccc3)CC2)cc1
2. C/C(=N\NC1=NCCN1)c1ccc(N)c([N+](=O)[O-])c1

["> 195 µM (not active)", "> 195 µM (not active)"]

* * *

test system: Corticotropin-releasing factor receptor 2/Corticotropin-releasing factor-binding protein (Homo sapiens, UniProt P24387+Q13324)
Sequence (Q13324 whole entry): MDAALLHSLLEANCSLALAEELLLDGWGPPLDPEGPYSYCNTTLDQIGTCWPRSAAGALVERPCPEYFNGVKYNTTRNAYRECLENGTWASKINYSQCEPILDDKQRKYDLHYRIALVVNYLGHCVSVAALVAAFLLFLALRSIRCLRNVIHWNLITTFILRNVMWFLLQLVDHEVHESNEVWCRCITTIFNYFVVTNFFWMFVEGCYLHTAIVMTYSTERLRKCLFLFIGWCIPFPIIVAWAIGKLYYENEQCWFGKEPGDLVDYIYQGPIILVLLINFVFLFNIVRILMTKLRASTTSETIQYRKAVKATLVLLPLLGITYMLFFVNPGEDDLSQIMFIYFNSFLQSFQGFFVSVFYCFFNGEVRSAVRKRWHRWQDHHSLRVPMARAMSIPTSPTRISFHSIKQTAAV
Sequence (P24387 whole entry): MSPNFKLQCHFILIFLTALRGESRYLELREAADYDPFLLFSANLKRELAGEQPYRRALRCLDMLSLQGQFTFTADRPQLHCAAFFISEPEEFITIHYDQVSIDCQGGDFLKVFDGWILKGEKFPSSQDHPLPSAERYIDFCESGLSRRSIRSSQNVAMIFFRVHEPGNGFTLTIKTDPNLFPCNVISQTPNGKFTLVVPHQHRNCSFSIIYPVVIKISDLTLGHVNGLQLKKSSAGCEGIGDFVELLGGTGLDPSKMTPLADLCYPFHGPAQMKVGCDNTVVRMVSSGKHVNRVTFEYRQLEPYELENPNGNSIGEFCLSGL
run description: Dose Response confirmation of uHTS hits for small molecule antagonists of the CRF-binding protein and CRF-R2 receptor complex.
Format: functional
stated conditions: read-out: IC50_Mean
Active and inactive are the calls of the source.
Response enum: 1 (yes) for active, 0 (no) for inactive

Consider the following illustrative entries.
Cc1ccc(S(=O)(=O)N(CC(=O)Nc2ccccc2C(=O)O)c2cccc(Cl)c2C)cc1 : 1 (yes)
O=c1cc(-c2ccc(F)cc2)oc2ccccc12 : 0 (no)
COc1ccc(C)cc1NC(=O)N1CCCc2ccccc21 : 0 (no)
Cc1cc(C)c(NC(=O)c2ccc(CNS(=O)(=O)c3cc(C(F)(F)F)ccc3Cl)cc2)c(C)c1 : 0 (no)
COC(=O)N/N=C(\C)c1cccs1 : 0 (no)
O=P(/C(=N/O)N1CCOCC1)(N1CCOCC1)N1CCOCC1 : 0 (no)

Record lookup: outcome of this test for O=C(Nc1ccc(N2CCN(c3ccccc3)CC2)c(F)c1)C1CC1 ?
0 (no)

Could you check what this test reported for O=[N+]([O-])c1cc(/C=N\O)ccc1Oc1ccc(F)cc1 ?
1 (yes)

Could you check what this test reported for O=C/C(=C\Nc1ccccn1)c1nc2cc(Cl)ccc2o1 ?
0 (no)

Given CCC(C)[C@H](NC(=O)N1CCn2c1nc1ccccc12)C(=O)NCc1ccc(OC)cc1 (some centres undefined) , state the outcome it received in this test.
0 (no)

Hey, what did the test say about COCc1ccc(CN2CCC(C(=O)Nc3cccc(-c4cscn4)c3)CC2)o1 ?
0 (no)

For Cc1cc(C)cc(C(=O)Nc2cccnc2Cl)c1 , what call appears in the results of this test?
0 (no)

Tell me the recorded outcome of this test for Cc1nn(Cc2ccc(Cl)cc2)c(C)c1NC(=O)c1ccc([N+](=O)[O-])cc1 .
1 (yes)

Could you please tell me the result logged for COC(=O)C1=NN(c2ccccc2)C2(S1)SC(C(C)=O)=C(C)N2c1ccccc1 (centres undefined) in this assay?
1 (yes)

* * *

Exercise: state measured EC50 for each of the compounds provided.
run description: fluconazole-exposed Candida albicans growth modulators – fluorescence, retest, confirmation (AID 2467)
Format: functional, cell-based
Active and inactive are the calls of the source.

Consider the following illustrative entries.
O=C(COc1ccccc1)NNC(=S)NC(=O)c1ccc(Cl)cc1Cl : > 38 µM (not active)
O=C(Nc1ccc(N=Nc2ccccc2)c(NC(=O)C2CCCO2)c1)C1CCCO1 (stereo not given) : > 38 µM (not active)

Go through the list and state EC50 for each entry.
1. COc1cccc(-n2nnnc2S(C)(=O)=O)c1
2. O=C(COc1ccc2c(c1)CCC2)N1CCN(c2cccc(C(F)(F)F)c2)CC1
3. CCn1c(O)c(N=NC(=O)c2cccs2)c2ccccc21

["1.76 µM (active)", "> 38 µM (not active)", "1.09 µM (active)"]

Sourced from ChEMBL document CHEMBL1201862
